Values were extracted from patent US11453672B2.

Test: Metabolic stability evaluation, rat liver microsomes
Type: in vitro ADME
Details: SD, pH 7.4, 1 μM compound, 0.5 mg/mL protein, 37° C., read-out: rat liver microsome CLint
Readings of microsomal CLint at 1 μM for the listed compounds
Return type: number; implicit unit µL/min/mg.

Previously resolved entries follow.
INSERT INTO assay_data (compound, recorded_number) VALUES
  ('[2H]C1([2H])C[C@H](O)C([2H])([2H])N1C(=O)Nc1cnn2ccc(N3CCC([2H])([2H])C3([2H])c3cc(F)ccc3F)nc12 (stereo in doubt)', 16.8),
  ('O=C(Nc1cnn2ccc(N3CCC[C@@H]3c3cc(F)ccc3F)nc12)N1CC[C@H](O)C1 [LOXO-101, reference compound]', 31.7),
  ('[2H]C1([2H])C[C@H](O)C([2H])([2H])N1C(=O)Nc1cnn2ccc(N3CCC[C@@H]3c3cc(F)ccc3F)nc12', 19.2);

# ---- query compound ----
Request: Entry [2H]C1([2H])CC([2H])([2H])[C@@]([2H])(c2cc(F)ccc2F)N1c1ccn2ncc(NC(=O)N3CC[C@H](O)C3)c2n1 has what microsomal CLint at 1 μM?
Result: 15.8

----------
Readings of half-life at 1 μM for the listed compounds
Assay: Metabolic stability evaluation, rat liver microsomes
Format: in vitro ADME
Conditions: SD, pH 7.4, 1 μM compound, 0.5 mg/mL protein, 37° C., read-out: rat liver microsome t1/2
Return type: number; implicit unit h.

Previously resolved entries follow.
INSERT INTO results (compound, unit_string, recorded_number) VALUES
  ('[2H]C1([2H])C[C@H](O)C([2H])([2H])N1C(=O)Nc1cnn2ccc(N3CCC[C@@H]3c3cc(F)ccc3F)nc12 [Compound L-1]', 'h', 1.2),
  ('[2H]C1([2H])C[C@H](O)C([2H])([2H])N1C(=O)Nc1cnn2ccc(N3CCC([2H])([2H])C3([2H])c3cc(F)ccc3F)nc12 (stereo in doubt) [Compound L-3]', 'h', 1.38),
  ('[2H]C1([2H])CC([2H])([2H])[C@@]([2H])(c2cc(F)ccc2F)N1c1ccn2ncc(NC(=O)N3CC[C@H](O)C3)c2n1 [Compound L-7]', 'h', 1.46);

Request: Entry O=C(Nc1cnn2ccc(N3CCC[C@@H]3c3cc(F)ccc3F)nc12)N1CC[C@H](O)C1 [LOXO-101, reference compound] has what half-life at 1 μM?
Result: 1.06

----------
Readings of half-life at 1 μM for the listed compounds
Assay: Metabolic stability evaluation, human liver microsomes
Assay type: in vitro ADME
Details: pH 7.4, 1 μM compound, 0.5 mg/mL protein, 37° C., read-out: human liver microsome t1/2
Return type: number; implicit unit h.

INSERT INTO measurements (compound, recorded_number) VALUES
  ('[2H]C1([2H])C[C@H](O)C([2H])([2H])N1C(=O)Nc1cnn2ccc(N3CCC[C@@H]3c3cc(F)ccc3F)nc12', 1.27),
  ('[2H]C1([2H])C[C@H](O)C([2H])([2H])N1C(=O)Nc1cnn2ccc(N3CCC([2H])([2H])C3([2H])c3cc(F)ccc3F)nc12 (stereo in doubt)', 1.21),
  ('[2H]C1([2H])C[C@H](c2cc(F)ccc2F)N(c2ccn3ncc(NC(=O)N4CC[C@H](O)C4)c3n2)C1', 1.1),
  ('O=C(Nc1cnn2ccc(N3CCC[C@@H]3c3cc(F)ccc3F)nc12)N1CC[C@H](O)C1 [LOXO-101, reference compound]', 1.08);

Request: Entry [2H]C1([2H])CC([2H])([2H])[C@@]([2H])(c2cc(F)ccc2F)N1c1ccn2ncc(NC(=O)N3CC[C@H](O)C3)c2n1 has what half-life at 1 μM?
Result: 1.12
